- Assay system: TANK-2 enzyme (Homo sapiens, UniProt Q9H2K2)
- Construct: made in house
- Sequence (Q9H2K2 whole entry): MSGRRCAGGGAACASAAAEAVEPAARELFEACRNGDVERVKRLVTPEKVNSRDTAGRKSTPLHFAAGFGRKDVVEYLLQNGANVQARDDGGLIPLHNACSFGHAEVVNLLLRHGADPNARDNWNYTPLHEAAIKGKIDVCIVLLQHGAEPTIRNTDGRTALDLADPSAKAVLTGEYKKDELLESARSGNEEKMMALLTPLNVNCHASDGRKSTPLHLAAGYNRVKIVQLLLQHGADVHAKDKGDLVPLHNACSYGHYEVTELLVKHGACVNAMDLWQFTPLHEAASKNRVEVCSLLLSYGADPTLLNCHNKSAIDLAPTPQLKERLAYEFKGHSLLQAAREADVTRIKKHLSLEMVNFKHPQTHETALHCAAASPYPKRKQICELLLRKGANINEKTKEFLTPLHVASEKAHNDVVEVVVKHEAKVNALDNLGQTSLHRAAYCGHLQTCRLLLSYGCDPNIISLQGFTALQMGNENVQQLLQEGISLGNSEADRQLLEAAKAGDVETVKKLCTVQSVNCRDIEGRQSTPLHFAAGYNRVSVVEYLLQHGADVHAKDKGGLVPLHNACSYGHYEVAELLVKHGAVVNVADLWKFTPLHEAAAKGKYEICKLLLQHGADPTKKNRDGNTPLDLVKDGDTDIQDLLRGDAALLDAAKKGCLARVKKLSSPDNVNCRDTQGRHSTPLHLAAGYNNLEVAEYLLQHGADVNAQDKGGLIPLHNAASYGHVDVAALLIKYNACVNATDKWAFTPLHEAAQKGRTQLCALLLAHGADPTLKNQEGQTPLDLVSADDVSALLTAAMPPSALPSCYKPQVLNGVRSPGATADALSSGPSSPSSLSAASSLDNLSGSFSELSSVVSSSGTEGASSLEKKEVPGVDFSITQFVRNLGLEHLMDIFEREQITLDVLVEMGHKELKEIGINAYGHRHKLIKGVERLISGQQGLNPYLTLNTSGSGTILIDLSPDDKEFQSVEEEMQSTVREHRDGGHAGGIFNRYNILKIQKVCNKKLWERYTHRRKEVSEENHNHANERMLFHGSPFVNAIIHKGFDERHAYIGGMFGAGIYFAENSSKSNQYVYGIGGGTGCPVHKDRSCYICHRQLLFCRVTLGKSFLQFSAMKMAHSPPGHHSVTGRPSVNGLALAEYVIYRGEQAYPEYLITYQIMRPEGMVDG
- Assay overview: In vitro Scintillation Proximity Assay (SPA) for TANK-2 inhibitory activity
- Type: biochemical
- Assay setup: read-out: in vitro SPA assay TANK-2 pIC50 (converted)
Range-based classes on measured IC50: lower: < 100 nM; middle: ≥ 100 nM and < 200 nM; upper: ≥ 200 nM

Previously resolved entries follow.
# Compound, Label value
rows = [
    ("CCc1cc2ccc(C(C)(C#N)Cc3cccnc3)cc2[nH]c1=O (stereo not shown)", "lower"),
    ("CCc1cc2ccc(C(C)(C#N)Cc3cccc(/C=N/O)c3)cc2[nH]c1=O (stereo not shown)", "middle"),
    ("CCc1cc2ccc(C(C)(C#N)Cc3cc(Cl)nc(C)n3)cc2[nH]c1=O (stereo not shown)", "lower"),
    ("CCc1cc2ccc(C(C)(C#N)CC3Oc4ccccc4O3)cc2[nH]c1=O (stereo not shown)", "upper"),
    ("CCc1cc2ccc(C(C)(C#N)Cc3cccc(CN4CCOCC4)c3)cc2[nH]c1=O (stereo not shown)", "upper"),
]

Enquiry: Sort into band: CCc1cc2ccc(C(C)(C#N)Cc3cc(Cl)cc(Cl)c3)cc2[nH]c1=O (stereo not shown)
Return: middle

Enquiry: Sort into band: CCc1cc2ccc(C(C)(C#N)Cc3cccc(C#Cc4cncn4C)n3)cc2[nH]c1=O (stereo not shown)
Return: middle

Enquiry: Sort into band: CCc1cc2ccc(C(C)(C#N)Cc3cccc(OC(F)(F)F)c3)cc2[nH]c1=O (stereo not shown)
Return: middle

Enquiry: Sort into band: Cc1cc2ccc(C(C)(C#N)Cc3cc(F)cc(F)c3)cc2[nH]c1=O (stereo not shown)
Return: upper

Enquiry: Sort into band: CCc1cc2ccc(C(C)(C#N)CN(C)CCc3cn(C)c4ccccc34)cc2[nH]c1=O (stereo not shown)
Return: middle

Enquiry: Sort into band: CCc1cc2ccc(C(C)(C#N)Cc3cccc(/C=N/OC)c3)cc2[nH]c1=O (stereo not shown)
Return: middle

Enquiry: Sort into band: C#Cc1cccc(CC(C)(C#N)c2ccc3cc(CC)c(=O)[nH]c3c2)c1 (racemic)
Return: lower

Enquiry: Sort into band: CCc1cc2ccc(C(C)(C#N)Cc3nc(OC)cc(N(C)C)n3)cc2[nH]c1=O (stereo not shown)
Return: middle

Enquiry: Sort into band: CCc1cc2ccc(C(C)(C#N)Cc3cccc(I)c3)cc2[nH]c1=O (stereo not shown)
Return: middle

Enquiry: Sort into band: CCc1cc2ccc(C(C)(C#N)Cc3cccc(OC)c3)cc2[nH]c1=O (stereo not shown)
Return: lower

Enquiry: Sort into band: CCc1cc2ccc(C(C)(C#N)Cc3cc(Cl)nc(N(C)C)c3)cc2[nH]c1=O (stereo not shown)
Return: upper

Enquiry: Sort into band: CCc1cc2ccc(C(C)(C#N)Cc3cccc(F)n3)cc2[nH]c1=O (stereo not shown)
Return: lower

Enquiry: Sort into band: CCc1cc2ccc(C(C)(C#N)Cc3ccccc3C#N)cc2[nH]c1=O (stereo not shown)
Return: lower

Enquiry: Sort into band: CCc1cc2ccc(C(C)(C#N)Cc3cccc(-c4ccccc4)c3)cc2[nH]c1=O (stereo not shown)
Return: upper

Enquiry: Sort into band: CCc1cc2ccc(C(C)(C#N)CCOc3cc(Cl)c(Cl)cc3Cl)cc2[nH]c1=O (stereo not shown)
Return: upper

Enquiry: Sort into band: CC(=O)c1cc2ccc(C(C)(C#N)Cc3ccccc3)cc2[nH]c1=O (stereo not shown)
Return: upper
